- experiment: Solubility in aqueous and biorelevant media
- Assay type: physicochemical
- cond: Water; [pH] 7.39; read-out: Solubility (mg/mL) [pH]
outcome measure: solubility

1. CO[C@@H](C)c1c(NC(=O)Nc2cnc(-n3nccn3)c(Cl)c2)cnc2cc(Cl)nn12; 0.005 mg/mL

----------
- experiment: Solubility in aqueous and biorelevant media
- Assay type: physicochemical
- cond: FaSSIF pH 6.5; [pH] 6.56; read-out: Solubility (mg/mL) [pH]
outcome measure: solubility (mg/mL)

1) CO[C@@H](C)c1c(NC(=O)Nc2cncc(C#N)c2)cnc2cc(C)nn12 [Example 1]; 0.022

----------
- experiment: Solubility in aqueous and biorelevant media
- Type: physicochemical
- cond: Fasted state simulated intestinal fluid (FaSSIF); [pH] 6.59; read-out: Solubility (mg/mL) [pH]
outcome measure: solubility (mg/mL)

1. CO[C@@H](C)c1c(NC(=O)Nc2cnc(-n3nccn3)c(Cl)c2)cnc2cc(Cl)nn12; 0.0044
